This listing pairs molecules with measured Cmax.
Protocol Details: Cmax in athymic CD1 nude mouse at 10 mg/kg, po by LC-MS/MS analysis
Assay type: ADME, organism-based
Design: dose 10 mg/kg, route oral
Condition: athymic CD1 nude, in vivo

Molecule	Cmax [ng/mL]
CC(C)CC(NC(=O)c1ccc2[nH]nc(-c3ccc(O[C@H]4C[C@H]5CC[C@@H](C4)N5C=O)cc3)c2c1)c1ccccn1 (mixture of isomers)	280
CN1CCN(c2ccc(-c3n[nH]c4ccc(C(=O)NCC5(N6CCOCC6)CCCCC5)cc34)cc2)CC1	160
NS(=O)(=O)c1cccc(-c2n[nH]c3ccc(NC(=O)C(c4ccsc4)N4CCCC4)cc23)c1 (racemic)	7
O=C(N[C@H](c1ccccn1)C1CCCC1)c1ccc2[nH]nc(-c3ccc(N4[C@H]5CC[C@H]4CC(O)C5)cc3)c2c1 (stereo in doubt; 76)	1500
O=C(NC(c1ccccc1)C1CC1)c1ccc2[nH]nc(-c3ccc(N4CCOCC4)cc3)c2c1 (racemic)	3900
O=C(Nc1ccc2[nH]nc(-c3ccc(N4CCOCC4)cc3)c2c1)C(c1ccsc1)N1CCCC1 (racemic)	3500
CN1CCN(c2ccc(-c3n[nH]c4ccc(NC(=O)C(c5ccsc5)N5CCCC5)cc34)cc2)CC1 (racemic)	180
O=C(N[C@H](c1ccccn1)C1CC1)c1ccc2[nH]nc(-c3ccc(N4[C@H]5CC[C@H]4CC(O)C5)cc3)c2c1 (stereo in doubt; 74)	1600
O=C(N[C@@H](c1ccccn1)C1CC1)c1ccc2[nH]nc(-c3ccc(N4[C@H]5CC[C@H]4CC(O)C5)cc3)c2c1 (stereo in doubt; 75)	2000
O=CN1[C@@H]2CC[C@H]1C[C@@H](Oc1ccc(-c3n[nH]c4ccc(C(=O)NC(c5ccsc5)C5CCC5)cc34)cc1)C2 (mixture of isomers)	33
O=C(N[C@H](c1ccccc1)C1CC1)c1ccc2[nH]nc(-c3ccc(N4[C@H]5CC[C@H]4CC(O)C5)cc3)c2c1 (stereo partly specified)	480

###

This listing pairs compounds with measured IC50.
Target Desc: Aurora kinase B/Inner centromere protein (Homo sapiens)
Protocol Details: Inhibition of AURKB/INCENP (unknown origin) preincubated for 15 mins prior to ATP addition by FRET-based homogenous assay

Compound	Unit Abbrev	IC50
CC[C@@H](NC(=O)c1ccc2[nH]nc(-c3ccc(OC4CCN(C)CC4)cc3)c2c1)c1ccccc1Cl	µM	0.038
CN1[C@@H]2CC[C@H]1C[C@@H](Oc1ccc(-c3n[nH]c4ccc(C(=O)NC(c5ccccc5)C5CC5)cc34)cc1)C2 (mixture of isomers)	µM	0.093
O=C(NC(c1ccccc1)C1CC1)c1ccc2[nH]nc(-c3ccc(N4CCOCC4)cc3)c2c1 (racemic)	µM	0.19
O=C(NCC1(N2CCOCC2)CCCCC1)c1ccc2[nH]nc(-c3ccc(N4C5CCC4COC5)cc3)c2c1	µM	0.8
CC(C)C[C@@H](NC(=O)c1ccc2[nH]nc(-c3ccc(N4[C@H]5CC[C@H]4CC(O)C5)cc3)c2c1)c1ccccn1 (stereo partly drawn)	µM	1.6
O=CN1[C@@H]2CC[C@H]1C[C@@H](Oc1ccc(-c3n[nH]c4ccc(C(=O)NC(c5ccsc5)C5CCC5)cc34)cc1)C2 (mixture of isomers)	µM	1.2
O=C(NCC1(N2CCOCC2)CCCCC1)c1ccc2[nH]nc(-c3ccc(N4CCOCC4)cc3)c2c1	µM	0.75
CN1CCN(c2ccc(-c3n[nH]c4ccc(C(=O)NCC5(N6CCOCC6)CCCCC5)cc34)cc2)CC1	µM	0.44

###

Protocol Details: Half life in rat liver microsomes at 1 uM by LC-MS analysis
Type: ADME
Condition: liver microsomes

Molecule	half-life at 1 µM
O=C(N[C@@H](c1ccccn1)C1CC1)c1ccc2[nH]nc(-c3ccc(N4[C@H]5CC[C@H]4CC(O)C5)cc3)c2c1 (stereo in doubt; 75)	> 1 h
O=C(N[C@H](CC1CC1)c1ccccn1)c1ccc2[nH]nc(-c3ccc(N4[C@H]5CC[C@H]4CC(O)C5)cc3)c2c1 (stereo partly drawn)	> 1 h
O=C(N[C@@H](c1ccccn1)C1CC1)c1ccc2[nH]nc(-c3ccc(N4C5CCC4COC5)cc3)c2c1	> 1 h

###

Target Desc: Aurora kinase B/Inner centromere protein (Homo sapiens, UniProt Q96GD4)
Sequence (Q96GD4 whole entry): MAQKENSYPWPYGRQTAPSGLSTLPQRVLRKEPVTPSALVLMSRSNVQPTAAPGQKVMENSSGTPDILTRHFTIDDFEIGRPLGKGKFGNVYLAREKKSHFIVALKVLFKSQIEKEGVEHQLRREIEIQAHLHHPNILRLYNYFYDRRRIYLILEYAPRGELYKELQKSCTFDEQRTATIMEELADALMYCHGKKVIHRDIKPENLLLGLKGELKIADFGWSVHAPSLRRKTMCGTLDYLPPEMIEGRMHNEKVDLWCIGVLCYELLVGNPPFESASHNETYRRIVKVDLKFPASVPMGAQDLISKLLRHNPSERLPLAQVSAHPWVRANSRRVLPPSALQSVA
Sequence (Q9NQS7 whole entry, further chain): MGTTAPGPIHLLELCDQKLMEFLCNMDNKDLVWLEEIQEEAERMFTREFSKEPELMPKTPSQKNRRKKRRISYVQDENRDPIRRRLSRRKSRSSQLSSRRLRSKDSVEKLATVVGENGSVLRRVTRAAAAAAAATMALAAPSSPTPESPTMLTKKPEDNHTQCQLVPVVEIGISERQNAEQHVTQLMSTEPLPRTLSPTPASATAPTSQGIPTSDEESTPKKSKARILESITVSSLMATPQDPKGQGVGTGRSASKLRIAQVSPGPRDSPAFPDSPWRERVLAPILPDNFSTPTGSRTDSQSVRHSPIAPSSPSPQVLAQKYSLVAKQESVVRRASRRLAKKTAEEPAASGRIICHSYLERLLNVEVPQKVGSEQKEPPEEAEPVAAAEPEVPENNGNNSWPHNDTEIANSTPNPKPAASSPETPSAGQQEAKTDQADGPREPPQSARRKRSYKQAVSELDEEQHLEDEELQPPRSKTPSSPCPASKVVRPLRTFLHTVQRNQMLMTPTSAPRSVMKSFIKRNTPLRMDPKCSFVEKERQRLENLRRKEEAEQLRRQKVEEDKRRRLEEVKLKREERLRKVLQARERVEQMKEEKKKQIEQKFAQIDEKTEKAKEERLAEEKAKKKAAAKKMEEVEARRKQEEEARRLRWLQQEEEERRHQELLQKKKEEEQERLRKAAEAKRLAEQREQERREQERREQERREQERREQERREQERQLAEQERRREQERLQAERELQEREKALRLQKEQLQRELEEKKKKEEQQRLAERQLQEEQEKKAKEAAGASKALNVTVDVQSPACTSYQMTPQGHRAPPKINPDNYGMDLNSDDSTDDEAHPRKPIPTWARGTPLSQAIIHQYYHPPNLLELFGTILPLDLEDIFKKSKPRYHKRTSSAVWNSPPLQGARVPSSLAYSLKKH
Protocol Details: Inhibition of AURKB/INCENP (unknown origin) preincubated for 15 mins prior to ATP addition by FRET-based homogenous assay
pIC50: −log10 of the molar value.
This listing pairs molecules with measured pIC50.

Molecule	Sign	pIC50
O=C(N[C@H](c1ccccn1)C1CCCC1)c1ccc2[nH]nc(-c3ccc(N4[C@H]5CC[C@H]4CC(O)C5)cc3)c2c1 (stereo in doubt; 76)	<	5.20
O=C(N[C@H](c1ccccc1F)C1CC1)c1ccc2[nH]nc(-c3ccc(N4C5CCC4COC5)cc3)c2c1	=	6.33
O=C(N[C@H](c1ccccc1)C1CC1)c1ccc2[nH]nc(-c3ccc(N4[C@H]5CC[C@H]4CC(O)C5)cc3)c2c1 (some centres not stated)	=	5.96
CN1CCC(Oc2ccc(-c3n[nH]c4ccc(C(=O)NC(c5ccccc5)C5CC5)cc34)cc2)CC1 (racemic)	=	7.24
O=C(N[C@@H](c1ccccn1)C1CC1)c1ccc2[nH]nc(-c3ccc(N4[C@H]5CC[C@H]4CC(O)C5)cc3)c2c1 (stereo in doubt; 87)	=	5.77
CC(C)C[C@H](NC(=O)c1ccc2[nH]nc(-c3ccc(N4[C@H]5COC[C@H]4CC(O)C5)cc3)c2c1)c1ccccn1 (mixture of isomers)	=	6.64
O=C(N[C@H](c1ccccn1)C1CCCC1)c1ccc2[nH]nc(-c3ccc(N4C5CCCC4COC5)cc3)c2c1	=	5.55

###

Target Desc: Dual specificity protein kinase TTK (Homo sapiens, UniProt P33981)
Sequence (P33981 whole entry, the tested form may be a part): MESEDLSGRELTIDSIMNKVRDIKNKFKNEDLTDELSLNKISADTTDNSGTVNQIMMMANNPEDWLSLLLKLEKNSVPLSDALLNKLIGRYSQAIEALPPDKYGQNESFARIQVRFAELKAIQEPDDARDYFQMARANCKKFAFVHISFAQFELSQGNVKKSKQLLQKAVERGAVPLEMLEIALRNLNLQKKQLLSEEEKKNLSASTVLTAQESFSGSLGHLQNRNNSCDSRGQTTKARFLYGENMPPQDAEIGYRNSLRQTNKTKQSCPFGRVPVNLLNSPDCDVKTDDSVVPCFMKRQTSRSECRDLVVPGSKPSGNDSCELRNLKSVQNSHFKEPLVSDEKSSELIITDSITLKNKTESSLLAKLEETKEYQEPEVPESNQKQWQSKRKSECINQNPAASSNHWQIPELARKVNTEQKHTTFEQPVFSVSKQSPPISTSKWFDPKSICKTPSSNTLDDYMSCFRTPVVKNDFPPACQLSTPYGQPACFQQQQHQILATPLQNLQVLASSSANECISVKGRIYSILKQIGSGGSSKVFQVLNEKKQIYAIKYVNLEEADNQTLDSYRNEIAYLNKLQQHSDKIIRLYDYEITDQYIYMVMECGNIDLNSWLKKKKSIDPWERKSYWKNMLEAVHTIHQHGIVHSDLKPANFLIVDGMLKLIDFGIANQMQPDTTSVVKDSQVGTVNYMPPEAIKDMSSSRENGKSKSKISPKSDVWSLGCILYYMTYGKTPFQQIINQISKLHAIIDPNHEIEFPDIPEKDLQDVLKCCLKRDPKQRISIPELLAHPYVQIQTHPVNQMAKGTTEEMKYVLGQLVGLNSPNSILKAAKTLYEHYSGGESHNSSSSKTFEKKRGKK
Protocol Details: Inhibition of amino terminal GST-fused full length human TTK using His6-SUMO-TTK-N as substrate preincubated for 15 mins prior to ATP addition by indirect ELISA detection system
pIC50: −log10 of the molar value.
This listing pairs molecules with measured pIC50.
Quantity: pIC50

Molecule	Target Desc	Numeric Readout
O=C(N[C@@H](c1ccccn1)C1CC1)c1ccc2[nH]nc(-c3ccc(N4C5CCC4COC5)cc3)c2c1	Dual specificity protein kinase TTK (Homo sapiens, UniProt P33981)	8.70
O=C(N[C@H](c1ccccn1)C1CCCC1)c1ccc2[nH]nc(-c3ccc(N4[C@H]5CC[C@H]4CC(O)C5)cc3)c2c1 (stereo in doubt; 76)	Dual specificity protein kinase TTK (Homo sapiens, UniProt P33981)	8.37
O=C(CC1(N2CCOCC2)CCCCC1)Nc1ccc2[nH]nc(-c3ccc(N4CCOCC4)cc3)c2c1	Dual specificity protein kinase TTK (Homo sapiens, UniProt P33981)	7.92
O=C(N[C@H](c1ccccc1)C1CC1)c1ccc2[nH]nc(-c3ccc(N4[C@H]5CC[C@H]4CC(O)C5)cc3)c2c1 (some centres not stated)	Dual specificity protein kinase TTK (Homo sapiens, UniProt P33981)	8.55
O=C(N[C@H](c1ccccn1)C1CC1)c1ccc2[nH]nc(-c3ccc(N4C5CCC4COC5)cc3)c2c1	Dual specificity protein kinase TTK (Homo sapiens, UniProt P33981)	8.85
O=C(NC(c1ccccc1)C1CC1)c1ccc2[nH]nc(-c3ccc(N4CCOCC4)cc3)c2c1 (racemic)	Dual specificity protein kinase TTK (Homo sapiens, UniProt P33981)	7.77
CN1[C@@H]2CC[C@H]1C[C@H](Oc1ccc(-c3n[nH]c4ccc(C(=O)NC(c5ccccc5)C5CC5)cc34)cc1)C2 (mixture of isomers)	Dual specificity protein kinase TTK (Homo sapiens, UniProt P33981)	8.14
